All values here come from ChEMBL document CHEMBL3433997.

- target-or-system: Solute carrier family 2, facilitated glucose transporter member 1 (Homo sapiens)
- protocol-notes: ST_JUDE_LEISH: Cytotoxicity at 2uM final concentration against transgenic Leishmania Mexicana promastigotes LmGLUT1 that are glucose transport deficient and complemented with the human glucose transporter GLUT1. Activity is measured by DNA content using SYBR green in vitro
- Format: functional
# reported inhibition; entries follow

| compound | inhibition |
| --- | --- |
| COc1cc(OC)cc(-c2nnc(Sc3ccc(C#N)c([N+](=O)[O-])c3)n2C)c1 | 9.51% |
| Nc1nc(N)c2c(ccc3nn(S(=O)(=O)N4CCCC4)cc32)n1 | 4.35% |
| CO/C(=C\C=C\c1cc2cc(Cl)c(Cl)cc2[nH]1)C(=O)NCC(C)(C)CN(C)C | -1.89% |
| CC(C)(C)c1nn(-c2ccccc2)c2[nH]c(=O)c(CNCc3ccc4c(c3)OCO4)cc12 | 6.79% |
| CCC(C)c1ccc(NC(=O)Nc2ccc(Cn3ncc(N4CCCNCC4)c(Cl)c3=O)cc2)cc1 (stereo not drawn) | 3.78% |
| CSc1cccc(Nc2nc3ccc(S(=O)(=O)NC(C)C(C)C)cc3n2[C@H](C)C(C)(C)C)c1 (stereo partly drawn) | 6.73% |
| Clc1ccc2nc(-c3cccnc3)[nH]c2c1 | 6.05% |
| CC(C)(C)c1cc(C(=O)N2CCN(c3nccnc3C#N)CC2)n(Cc2ccccc2)n1 | 1.68% |
| CCn1ccc2c(N3CCCC3=O)cc(C(=O)N[C@@H](Cc3ccccc3)[C@H](O)CNC3CCCCC3)cc21 | 4.2% |
| O=C(/C=C/c1ccc(Cl)c(Cl)c1)NCCCCCN1CCCN(C(=S)Nc2ccc(Cl)c(Cl)c2)CC1 | -0.53% |
| COc1nc(Nc2cccc(C)c2)nc(OC)n1 | -0.24% |
| Nc1ccnc(N2CCC(CCOc3cc(C(F)(F)F)nc4c(C(F)(F)F)cccc34)CC2)c1 | 25.6% |
| CN(C)CC1c2[nH]c3ccccc3c2CCN1C(=O)Nc1ccc(Cl)c(Cl)c1 (stereo not drawn) | 5.56% |
| CC(C)C[C@H](NC(=O)c1ccc(F)cc1)C(=O)N[C@H](/C=N/NC(=O)c1ccccc1)CCc1ccccc1 | 4.79% |
| COc1ccc2nccc([C@@H](O)CN3CCC(NC(=O)Cc4cccc5c(Br)cccc45)CC3)c2c1 | 14.1% |
| CN1CCN(c2cc(NC(=O)Nc3ccc(-c4ccncc4)c(Cl)c3)ccc2Br)CC1 | 10.9% |
| CC(C)CC1c2[nH]c3ccccc3c(=O)c2CN1C(=O)OC(C)(C)C (stereo not drawn) | 2.72% |
| Cc1cccc2nc(-c3ccc(-c4ccc(CN5CCOCC5)cc4)cc3)[nH]c12 | 4.34% |
| CC1(C)NC(N)=NC(=N)N1OCCCOc1cc(Cl)cc(Cl)c1 | 4.4% |
| Cc1cccc2nc(-c3cccc(-c4cccc(NC(=O)Nc5ccsc5)c4)c3)[nH]c12 | 4.96% |
| COc1cccc(CC(=O)N2CCC(n3c(C)nc4ccc(F)cc43)CC2)c1 | 2.08% |
| CCCC(C(=O)OCCN(CC)CC)(c1ccc(Cl)cc1)c1ccc(Cl)cc1 | 4.77% |
| O=C(Nc1nc2ccc(Cl)cc2s1)c1csnn1 | -1.77% |

====

- target-or-system: Glucose transporter (Leishmania mexicana) (UniProt O61059)
- protocol-notes: ST_JUDE_LEISH: Cytotoxicity at 2uM final concentration against transgenic Leishmania Mexicana promastigotes LmGT2 that are glucose transport deficient and complemented with the L. Mexicana glucose transporter 2. Activity is measured by DNA content using SYBR green in vitro
- Assay type: functional
Assign MET to entries whose inhibition meets or exceeds 5%; assign NOT MET to the rest.

| molecule | qualitative-label |
| --- | --- |
| COc1ccc2ccc(F)c(CCN3CCC(NCc4cc5c(cn4)OCCO5)CC3)c2n1 | MET |
| CC(C)NCc1cc(Nc2ccnc3cc(Cl)ccc23)ccc1O | NOT MET |
| COc1ccc2ncc(F)c(CCN3CC(O)C(CNCc4ccc5ccccc5c4)C3)c2n1 (centres undefined) | MET |
| Fc1ccc(CNc2ccc3ncc(-c4cccnc4)n3n2)cc1 | NOT MET |
| O=C(Nc1ccc(Cl)cc1F)N[C@H]1CCN(CCCCCNC(=O)C2CC2c2ccc(Cl)c(Cl)c2)C1 (some centres undefined) | MET |
| Cc1noc(-c2cccs2)c1C(=O)NCCc1cccc(Cl)c1 | NOT MET |
| Cc1ccccc1C1CCN(C2CCC(NC(=O)c3ccc4c(c3)-c3nocc3C(C)O4)CC2)CC1 (centres undefined) | MET |
